Just for reference, patent US7455837B2 is where these values come from.

TESTED ON: T1, mouse C5a receptor (mouse, UniProt P30993 1-351)
T1 construct: whole, on cells
T1 sequence (looked up): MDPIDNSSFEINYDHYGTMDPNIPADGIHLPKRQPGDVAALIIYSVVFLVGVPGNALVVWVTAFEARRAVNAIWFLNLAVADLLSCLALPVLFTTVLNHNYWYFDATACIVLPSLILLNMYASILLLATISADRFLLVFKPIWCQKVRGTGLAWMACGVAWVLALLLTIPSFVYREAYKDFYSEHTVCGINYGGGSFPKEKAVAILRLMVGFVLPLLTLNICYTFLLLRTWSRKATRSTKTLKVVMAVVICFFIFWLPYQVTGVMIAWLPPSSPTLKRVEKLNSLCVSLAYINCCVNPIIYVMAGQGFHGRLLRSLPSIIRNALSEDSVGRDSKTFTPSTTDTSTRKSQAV
TEST SUMMARY: competition of unlabeled mC5a with 100 pM 125I-mC5a on mouse peritoneal neutrophils, 20 min at 4 C
Experimental: Isolated neutrophils were incubated for 1 h at 4° C. in binding buffer (HBSS without Ca^2+ and containing 1% BSA) to block nonspecific surface binding sites. […] Binding affinities (K_d values) of C5a were calculated in the conventional manner (Chenoweth et al., (1978) *Proc. Natl. Acad. Sci. USA* 75,3943-3947). […]

BINDER	Kd
recombinant mouse C5a (ligand, UniProt P06684 679-755, looked up, 125I label (chloramine T) on the tracer form only; the competitor was unlabeled, domain: C5a; Expressed in E. coli BL21(DE3) pLysS from pET 15b (NdeI/BamHI) and purified over a Ni2+ column; C5a is only a fragment of it; also called mC5a; recombinant mouse (m) C5a) NLHLLRQKIEEQAAKYKHSVPKKCCYDGARVNFYETCEERVARVTIGPLCIRAFNECCTIANKIRKESPHKPVQLGR	~3 nM
